# Lookup of reported pre-emergence activity at 1280g/ha against ECHCG in % keyed by entry
Test system: ECHCG
Assay: Herbicidal pre-emergence action - Part I
Type: in vivo, Echinochloa crus-galli
Details: 1280 g/ha, visual grading after ca. 3 weeks vs untreated controls
PARAMETER_MEASURED: pre-emergence activity at 1280g/ha against ECHCG in % (%)

> print(dat)
                                   compound  experimental.target  observed.measurement
1  Cc1ccsc1C1=NOC2(CCCN(Cc3ccccc3F)C2=O)C1 (racemic)                ECHCG                   100
2  O=C1N(Cc2ccccc2F)CCC12CC(c1c(F)cccc1F)=NO2 (racemic)                ECHCG                   100
3  Cc1ccsc1C1=NOC2(CCN(Cc3ccccc3F)C2=O)C1 (racemic)                ECHCG                    90
4  O=C1N(Cc2c(F)cccc2F)CCC12CC(c1ccccc1F)=NO2 (racemic)                ECHCG                   100

* * *

Listed here are compounds together with their documented post-emergence activity against ABUTH.
Test system: ABUTH
Experiment: Herbicidal post-emergence action - Part II
Assay type: in vivo, Abutilon theophrasti
Settings: 5 g/ha; Table E1a
PARAMETER_MEASURED: post-emergence activity against ABUTH (%)

> print(dat)
                                   compound                     parameter.measured  unit.descriptor  observed.measurement
1  Cn1c(C(F)(F)F)cc(=O)n(-c2cc(C3=NOC4(CCN(Cc5ccccc5Cl)C4=O)C3)c(Cl)cc2F)c1=O (racemic)  post-emergence activity against ABUTH                %                   100
2  Cn1c(C(F)(F)F)cc(=O)n(-c2cc(C3=NOC4(CCCNC4=O)C3)c(Cl)cc2F)c1=O (racemic)  post-emergence activity against ABUTH                %                    80
3  Cn1c(C(F)(F)F)cc(=O)n(-c2cc(C3=NOC4(CCCN(Cc5ccccc5F)C4=O)C3)c(Cl)cc2F)c1=O (racemic)  post-emergence activity against ABUTH                %                   100

* * *

Tested on: ECHCG
Assay: Herbicidal pre-emergence action - Part I
Type: in vivo, Echinochloa crus-galli
Details: 1280 g/ha, visual grading after ca. 3 weeks vs untreated controls
PARAMETER_MEASURED: pre-emergence activity at 1280g/ha against ECHCG in % (%)

> print(dat)
                                   molecule  experimental.target  unit.descriptor  observed.measurement
1  N#Cc1ncccc1C1=NOC2(CCN(Cc3cccc(F)c3F)C2=O)C1 (racemic)                ECHCG                %                   100
2  Cc1ccsc1C1=NOC2(CCCN(Cc3c(F)cccc3F)C2=O)C1 (racemic)                ECHCG                %                   100
3  Cc1ccsc1C1=NOC2(CCCN(Cc3cccc(F)c3F)C2=O)C1 (racemic)                ECHCG                %                   100
4  COc1ncccc1C1=NOC2(CCN(Cc3cccc(F)c3F)C2=O)C1 (racemic)                ECHCG                %                    90
5  N#Cc1ncccc1C1=NOC2(CCN(Cc3ccccc3F)C2=O)C1 (racemic)                ECHCG                %                   100
6  Cc1ccsc1C1=NOC2(CCN(Cc3c(F)cccc3F)C2=O)C1 (racemic)                ECHCG                %                   100
